Target: PI3K delta (Homo sapiens (Human), UniProt O00329)
Sequence (O00329 other isoform, or with tags, fused parts or gaps linker GGGGGG): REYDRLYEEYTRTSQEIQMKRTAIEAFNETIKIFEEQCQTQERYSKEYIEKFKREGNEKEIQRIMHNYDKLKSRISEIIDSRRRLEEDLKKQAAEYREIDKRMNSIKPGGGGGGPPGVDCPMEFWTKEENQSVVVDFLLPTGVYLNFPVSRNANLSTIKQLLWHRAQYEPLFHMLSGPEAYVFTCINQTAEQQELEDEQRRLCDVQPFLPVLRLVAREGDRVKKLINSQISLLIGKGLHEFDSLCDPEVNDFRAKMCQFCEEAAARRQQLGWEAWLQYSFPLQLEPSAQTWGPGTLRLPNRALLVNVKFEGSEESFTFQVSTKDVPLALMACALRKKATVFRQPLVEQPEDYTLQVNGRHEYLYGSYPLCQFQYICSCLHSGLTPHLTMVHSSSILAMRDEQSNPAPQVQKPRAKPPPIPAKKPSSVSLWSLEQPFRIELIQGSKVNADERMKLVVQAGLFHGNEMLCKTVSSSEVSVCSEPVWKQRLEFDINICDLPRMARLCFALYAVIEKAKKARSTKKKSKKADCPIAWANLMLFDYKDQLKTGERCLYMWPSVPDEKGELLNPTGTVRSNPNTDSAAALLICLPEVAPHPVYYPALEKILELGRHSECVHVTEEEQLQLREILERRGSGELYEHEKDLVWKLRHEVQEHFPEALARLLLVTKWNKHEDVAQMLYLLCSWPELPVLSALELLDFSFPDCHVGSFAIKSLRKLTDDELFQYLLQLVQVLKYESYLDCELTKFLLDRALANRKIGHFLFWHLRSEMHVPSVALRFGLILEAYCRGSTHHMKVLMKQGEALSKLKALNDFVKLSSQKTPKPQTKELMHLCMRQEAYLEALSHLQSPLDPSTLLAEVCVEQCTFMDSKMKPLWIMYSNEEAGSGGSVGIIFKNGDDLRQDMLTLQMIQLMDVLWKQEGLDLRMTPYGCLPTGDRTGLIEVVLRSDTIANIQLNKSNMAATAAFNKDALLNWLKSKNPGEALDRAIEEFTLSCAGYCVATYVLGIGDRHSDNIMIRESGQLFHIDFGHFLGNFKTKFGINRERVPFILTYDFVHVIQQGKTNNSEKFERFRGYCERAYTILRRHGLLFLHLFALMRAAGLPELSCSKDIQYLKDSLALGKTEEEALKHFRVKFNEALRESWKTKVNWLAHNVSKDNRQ
Test: Enzymatic PI3K delta isoform inhibition (lipid kinase activity, Kinase-Glo luminescence)
Settings: Enzymatic assay
In this section we review reported pIC50 values for a set of molecules.
Reminder that pIC50 is minus the log10 of a molar concentration.

Observe how each entry below is paired with its result.
CS(=O)(=O)c1ccc(N2CCOc3ccc(O[C@H]4CCN(C(=O)C5CCOCC5)C4)cc32)cn1 | 7.27
COc1cc(N2CCOc3ccc(O[C@H]4CCN(C(=O)C5CCCOC5)C4)cc32)cnc1OC (stereo partly shown) | 7.24

stdin: Data request, read-out pIC50, for CCC(=O)N1CC[C@H](Oc2ccc3c(c2)N(c2cnc(N)c(OC)c2)CCO3)C1
stdout: 5.27

stdin: Repeat with COc1cc(N2CCOc3ccc(O[C@H]4CCN(C(=O)C5CCOCC5)C4)cc32)cnc1Cl
stdout: 7.96

----------
Target: PI3K delta (Homo sapiens (Human))
Assay: Enzymatic PI3K delta isoform inhibition (lipid kinase activity, Kinase-Glo luminescence)
Settings: Enzymatic assay
quantity_name: pIC50
The meaning of pIC50 here: minus log10 of the concentration in molar units.

COc1ncc(N2CCOc3ccc(O[C@H]4CCN(C(=O)[C@H]5CC[C@@H](O)CC5)C4)cc32)cc1F [Example B118] | 8.00
COc1ncc(N2CCOc3ccc(O[C@H]4CCN(C(=O)C5CNC(=O)C5)C4)cc32)cc1C#N (stereo partly shown) [Example C19] | 7.68
CCOc1ncc(N2CCOc3ccc(O[C@H]4CCN(C(=O)C5CCS(=O)(=O)CC5)C4)cc32)cc1C [Example B17] | 7.64
COc1ncc(N2CCOc3ccc(O[C@H]4CCN(C(=O)C5CCS(=O)(=O)CC5)C4)cc32)cc1C#N [Example D16] | 8.15
CCC(=O)N1CC[C@H](Oc2ccc3c(c2)N(c2cnc(Cl)c(OC)c2)CCO3)C1 [Example B55] | 7.19

stdin: Could you share what pIC50 was measured for COc1ncc(N2CCOc3ccc(O[C@H]4CCN(C(=O)C5CCOCC5)C4)cc32)cc1C [Example A1] , tested on PI3K delta (Homo sapiens (Human))?
stdout: 8.22

stdin: Also, Cc1cc(N2CCOc3ccc(O[C@H]4CCN(C(=O)C5CCS(=O)(=O)C5)C4)cc32)cnc1S(C)(=O)=O (stereo partly shown) [Example H2] please.
stdout: 7.89

----------
Listed next: entries and their corresponding IC50.
Molecular target: PI3K alpha (Homo sapiens (Human))
Sequence (P42336 other isoform, or with tags, fused parts or gaps): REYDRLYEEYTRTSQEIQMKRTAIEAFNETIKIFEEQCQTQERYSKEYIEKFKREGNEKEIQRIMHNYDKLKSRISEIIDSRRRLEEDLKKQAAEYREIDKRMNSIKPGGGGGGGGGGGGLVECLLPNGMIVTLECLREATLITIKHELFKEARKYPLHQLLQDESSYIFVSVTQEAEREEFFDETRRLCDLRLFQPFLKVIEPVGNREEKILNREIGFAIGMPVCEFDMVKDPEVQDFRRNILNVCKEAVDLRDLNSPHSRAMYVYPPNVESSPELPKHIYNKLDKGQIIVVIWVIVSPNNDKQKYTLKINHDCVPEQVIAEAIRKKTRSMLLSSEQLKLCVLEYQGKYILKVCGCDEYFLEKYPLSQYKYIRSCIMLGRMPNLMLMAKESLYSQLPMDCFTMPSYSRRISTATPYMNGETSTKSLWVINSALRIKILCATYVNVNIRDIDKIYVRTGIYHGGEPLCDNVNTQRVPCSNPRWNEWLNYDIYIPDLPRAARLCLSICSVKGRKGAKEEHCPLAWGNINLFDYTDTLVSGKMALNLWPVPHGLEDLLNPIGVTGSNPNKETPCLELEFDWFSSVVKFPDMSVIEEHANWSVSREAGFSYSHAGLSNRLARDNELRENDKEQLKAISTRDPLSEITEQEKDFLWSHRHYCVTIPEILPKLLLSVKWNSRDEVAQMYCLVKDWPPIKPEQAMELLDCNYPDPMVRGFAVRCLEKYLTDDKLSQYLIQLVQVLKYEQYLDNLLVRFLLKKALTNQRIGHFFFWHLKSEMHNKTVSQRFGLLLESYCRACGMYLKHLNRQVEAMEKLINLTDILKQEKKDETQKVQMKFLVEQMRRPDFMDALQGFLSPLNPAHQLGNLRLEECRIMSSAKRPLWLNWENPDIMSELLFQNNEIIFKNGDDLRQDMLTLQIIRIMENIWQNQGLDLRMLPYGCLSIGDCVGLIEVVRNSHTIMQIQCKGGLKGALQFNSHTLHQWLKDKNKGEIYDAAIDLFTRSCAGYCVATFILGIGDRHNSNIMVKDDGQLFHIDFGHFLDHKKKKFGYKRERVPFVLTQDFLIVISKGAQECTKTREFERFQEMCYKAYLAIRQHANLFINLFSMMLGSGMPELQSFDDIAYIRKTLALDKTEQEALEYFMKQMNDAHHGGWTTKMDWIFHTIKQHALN
Assay: Enzymatic PI3K alpha isoform inhibition (lipid kinase activity, Kinase-Glo luminescence)
Conditions: Enzymatic assay
Method: 1.1 Test of Lipid Kinase Activity […] In a more preferred assay, the kinase reaction is performed in a final volume of 10 μl per well of a low volume non-binding CORNING, 384 well black plate (Cat. No. #3676). […] IC50 is determined by a four parameter curve fitting routine that comes along with “excel fit”. […] Alternatively, IC50 values are calculated using idbsXLfit model 204, which is a 4 parameter logistic model. […]
Return type: number; implicit unit nM.

Cc1cc(N2CCOc3ccc(O[C@H]4CCN(C(=O)C5CCS(=O)(=O)CC5)C4)cc32)cnc1Cl | 463

stdin: Look up IC50 with PI3K alpha (Homo sapiens (Human)) for this molecule: COc1ncc(N2CCOc3ccc(O[C@H]4CCN(C(=O)C5CCS(=O)(=O)C5)C4)cc32)cc1F (single isomer, unassigned) [Example H11]
stdout: 299

stdin: Continue with CCC(=O)N1CC[C@H](Oc2ccc3c(c2)N(c2ccc(OC)c(S(=O)(=O)N4CCOCC4)c2)CCO3)C1
stdout: 5760

stdin: Next: CCC(=O)N1CC[C@H](Oc2ccc3c(c2)N(c2ccc(S(C)(=O)=O)nc2)CCO3)C1
stdout: 5930

stdin: Now consider COc1ncc(N2CCOc3ccc(O[C@H]4CCN(C(=O)CCS(C)(=O)=O)C4)cc32)cc1Cl .
stdout: 247

stdin: Quick one: COc1ncc(N2CCOc3ccc(O[C@H]4CCN(C(=O)C5CCS(=O)(=O)CC5)C4)c(C)c32)cc1C(F)F
stdout: 3580

stdin: Next: CCc1cc(N2CCOc3ccc(O[C@H]4CCN(C(=O)C5CCS(=O)(=O)CC5)C4)cc32)cnc1OC
stdout: 1160

stdin: What do you have for O=C(C1CCOCC1)N1CC[C@H](Oc2ccc3c(c2)N(c2ccnc(C(F)(F)F)c2)CCO3)C1 ?
stdout: 8430

stdin: Now this one: COc1ncc(N2CCOc3ccc(O[C@H]4CCN(C(=O)CS(C)(=O)=O)C4)cc32)cc1Cl
stdout: 148

stdin: Another: COc1ncc(N2CCOc3ccc(O[C@H]4CCN(C(=O)C5CCS(=O)(=O)CC5)C4)c(F)c32)cc1C
stdout: 842

stdin: Record: CS(=O)(=O)c1ncc(N2CCOc3ccc(O[C@H]4CCN(C(=O)C5CCOCC5)C4)cc32)cc1C(F)(F)F
stdout: 189

stdin: What do you get for COc1ncc(N2CCOc3ccc(O[C@H]4CCN(C(=O)c5cnco5)C4)cc32)cc1C#N ?
stdout: 94

stdin: Cool, now Cc1cc(N2CCOc3ccc(O[C@H]4CCN(C(=O)c5cocn5)C4)cc32)cnc1S(C)(=O)=O
stdout: 212

stdin: # iterate: COc1ncc(N2CCOc3ccc(O[C@H]4CCN(C(=O)C5CCS(=O)(=O)CC5)C4)cc32)cc1C(F)F
stdout: 124
